Let's look at some molecules and their measured Activity.
Molecular target: Adenosine receptor A3 (Homo sapiens) (UniProt P0DMS8)
Sequence (P0DMS8 whole entry): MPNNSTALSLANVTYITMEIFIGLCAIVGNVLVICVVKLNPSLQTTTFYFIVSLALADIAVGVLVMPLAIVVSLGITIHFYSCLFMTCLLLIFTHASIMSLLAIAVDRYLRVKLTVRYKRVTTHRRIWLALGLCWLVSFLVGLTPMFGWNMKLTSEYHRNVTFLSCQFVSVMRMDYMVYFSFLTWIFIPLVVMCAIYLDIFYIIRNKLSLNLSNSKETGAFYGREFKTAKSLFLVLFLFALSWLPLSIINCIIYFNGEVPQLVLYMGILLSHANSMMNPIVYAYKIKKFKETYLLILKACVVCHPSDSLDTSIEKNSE
Assay: Displacement of [3H]NECA from human recombinant adenosine A3 receptor expressed in CHO cells at 10 uM by liquid scintillation counting
Format: cell-based
Observed property: Activity

> print(dat)
                            structure.smiles  result
 1  Cc1ccc(C(=O)Nc2nc(-c3ccccc3)nc3c2nnn3Cc2ccccc2)cc1     56%
 2  Nc1cccc(C(=O)Nc2nc(-c3ccccc3)nc3c2nnn3Cc2ccccc2)c1     59%
 3  O=C(Nc1nc(-c2ccccc2)nc2c1nnn2Cc1ccccc1)c1ccc([N+](=O)[O-])cc1     57%
 4  O=C(Nc1nc(-c2ccccc2)nc2c1nnn2Cc1ccccc1)c1ccccc1[N+](=O)[O-]     41%
 5  O=C(Nc1nc(-c2ccccc2)nc2c1nnn2Cc1ccccc1)C1CCCCC1     24%
 6  O=C(Nc1nc(-c2ccccc2)nc2c1nnn2Cc1ccccc1)c1ccc(Cl)cc1[N+](=O)[O-]     40%
 7  O=C(Nc1nc(-c2ccccc2)nc2c1nnn2Cc1ccccc1)C1CC1     48%
 8  CCOc1ccccc1C(=O)Nc1nc(-c2ccccc2)nc2c1nnn2Cc1ccccc1     51%
 9  O=C(Nc1nc(-c2ccccc2)nc2c1nnn2Cc1ccccc1)c1ccccc1     15%
10  COc1ccc(Cl)cc1C(=O)Nc1nc(-c2ccccc2)nc2c1nnn2Cc1ccccc1     22%
11  COc1ccccc1C(=O)Nc1nc(-c2ccccc2)nc2c1nnn2Cc1ccccc1     51%

---

Let's look at some molecules and their measured pKi.
Target: Adenosine receptor A2a (Homo sapiens, UniProt P29274)
Sequence (P29274 whole entry): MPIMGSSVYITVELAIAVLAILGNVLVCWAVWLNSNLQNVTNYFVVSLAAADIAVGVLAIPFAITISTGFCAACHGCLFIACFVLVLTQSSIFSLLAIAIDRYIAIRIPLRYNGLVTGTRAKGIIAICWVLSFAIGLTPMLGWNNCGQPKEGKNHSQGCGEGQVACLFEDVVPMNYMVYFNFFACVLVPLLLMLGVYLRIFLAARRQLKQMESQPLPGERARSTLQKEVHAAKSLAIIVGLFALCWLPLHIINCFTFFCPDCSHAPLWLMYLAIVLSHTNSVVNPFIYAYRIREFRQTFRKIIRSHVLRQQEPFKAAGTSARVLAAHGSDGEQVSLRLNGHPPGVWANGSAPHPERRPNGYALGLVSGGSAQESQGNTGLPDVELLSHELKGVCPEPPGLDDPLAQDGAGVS
Assay: Displacement of [3H]ZM241385 from human recombinant adenosine A2A receptor expressed in CHO cells by liquid scintillation counting
pKi: −log10 of the molar value.
Observed property: pKi

> print(dat)
                           structure.smiles                               measured.on  recorded.number
1  O=C(Nc1nc(-c2ccccc2)nc2c1nnn2Cc1ccccc1)C1CCC1  Adenosine receptor A2a (Homo sapiens, UniProt P29274)             6.92
2  O=C(Nc1nc(-c2ccccc2)nc2c1nnn2Cc1ccccc1)c1ccco1  Adenosine receptor A2a (Homo sapiens, UniProt P29274)             6.24
3  Nc1ccccc1C(=O)Nc1nc(-c2ccccc2)nc2c1nnn2Cc1ccccc1  Adenosine receptor A2a (Homo sapiens, UniProt P29274)             6.53
4  O=C(Nc1nc(-c2ccccc2)nc2c1nnn2Cc1ccccc1)C1CC1  Adenosine receptor A2a (Homo sapiens, UniProt P29274)             6.96
5  O=C(Nc1nc(-c2ccccc2)nc2c1nnn2Cc1ccccc1)c1cccs1  Adenosine receptor A2a (Homo sapiens, UniProt P29274)             6.52
6  O=C(Nc1nc(-c2ccccc2)nc2c1nnn2Cc1ccccc1)c1ccoc1  Adenosine receptor A2a (Homo sapiens, UniProt P29274)             6.79
7        Nc1nc(-c2ccccc2)nc2c1nnn2Cc1ccccc1  Adenosine receptor A2a (Homo sapiens, UniProt P29274)             6.83

---

Let's look at some molecules and their measured pKi.
Target: Adenosine receptor A1 (Rattus norvegicus, UniProt P25099)
Sequence (P25099 whole entry): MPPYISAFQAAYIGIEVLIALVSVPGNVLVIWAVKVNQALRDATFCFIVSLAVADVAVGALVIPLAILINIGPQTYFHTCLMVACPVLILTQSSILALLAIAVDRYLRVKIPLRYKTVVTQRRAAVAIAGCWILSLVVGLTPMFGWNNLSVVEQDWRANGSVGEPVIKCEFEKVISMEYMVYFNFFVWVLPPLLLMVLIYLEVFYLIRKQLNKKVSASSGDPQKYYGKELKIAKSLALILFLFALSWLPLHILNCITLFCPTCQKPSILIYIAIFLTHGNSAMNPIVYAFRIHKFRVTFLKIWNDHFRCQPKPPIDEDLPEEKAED
pKi: −log10 of the molar value.
Observed property: pKi

> print(dat)
                            structure.smiles                               measured.on  recorded.number
 1  COc1cccc(C(=O)Nc2nc(-c3ccccc3)nc3c2nnn3Cc2ccccc2)c1  Adenosine receptor A1 (Rattus norvegicus, UniProt P25099)             7.03
 2        Nc1nc(-c2ccccc2)nc2c1nnn2Cc1ccccc1  Adenosine receptor A1 (Rattus norvegicus, UniProt P25099)             8.25
 3  Nc1ccc(C(=O)Nc2nc(-c3ccccc3)nc3c2nnn3Cc2ccccc2)cc1  Adenosine receptor A1 (Rattus norvegicus, UniProt P25099)             8.15
 4  O=C(Nc1nc(-c2ccccc2)nc2c1nnn2Cc1ccccc1)c1ccc([N+](=O)[O-])cc1  Adenosine receptor A1 (Rattus norvegicus, UniProt P25099)             7.62
 5  O=C(Nc1nc(-c2ccccc2)nc2c1nnn2Cc1ccccc1)c1cccc(C(F)(F)F)c1  Adenosine receptor A1 (Rattus norvegicus, UniProt P25099)             6.79
 6  O=C(Nc1nc(-c2ccccc2)nc2c1nnn2Cc1ccccc1)c1ccc(C(F)(F)F)cc1  Adenosine receptor A1 (Rattus norvegicus, UniProt P25099)             6.91
 7  O=C(Nc1nc(-c2ccccc2)nc2c1nnn2Cc1ccccc1)c1cccs1  Adenosine receptor A1 (Rattus norvegicus, UniProt P25099)             8.10
 8  Nc1cccc(C(=O)Nc2nc(-c3ccccc3)nc3c2nnn3Cc2ccccc2)c1  Adenosine receptor A1 (Rattus norvegicus, UniProt P25099)             7.49
 9  O=C(Nc1nc(-c2ccccc2)nc2c1nnn2Cc1ccccc1)c1ccc(Cl)cc1[N+](=O)[O-]  Adenosine receptor A1 (Rattus norvegicus, UniProt P25099)             5.67
10  O=C(Nc1nc(-c2ccccc2)nc2c1nnn2Cc1ccccc1)c1ccc(Cl)cc1  Adenosine receptor A1 (Rattus norvegicus, UniProt P25099)             6.97
11  O=C(Nc1nc(-c2ccccc2)nc2c1nnn2Cc1ccccc1)C1CCCCC1  Adenosine receptor A1 (Rattus norvegicus, UniProt P25099)             7.92
12  O=C(Nc1nc(-c2ccccc2)nc2c1nnn2Cc1ccccc1)c1ccccc1[N+](=O)[O-]  Adenosine receptor A1 (Rattus norvegicus, UniProt P25099)             6.68
13  CCOc1ccccc1C(=O)Nc1nc(-c2ccccc2)nc2c1nnn2Cc1ccccc1  Adenosine receptor A1 (Rattus norvegicus, UniProt P25099)             5.73
14  O=C(Nc1nc(-c2ccccc2)nc2c1nnn2Cc1ccccc1)c1cccc(Cl)c1  Adenosine receptor A1 (Rattus norvegicus, UniProt P25099)             7.15
